system: SNB-75 CNS; assay: NCI tumour cell line growth inhibition, 48 h
The molecules listed here are annotated with their TGI.

Answered examples (5):
molecule=NC(=O)CCc1ccccc1Oc1nccc(-c2c(-c3ccc(F)cc3)ncn2C2CCNCC2)n1 result_value="> 25 µM"
molecule=COC(=O)[C@@H](C)C[C@H](Cc1ccccc1)NC(=O)c1csc([C@@H](C[C@H](C(C)C)N(C)C(=O)C2(NC(=O)[C@H]3CCCCN3C)CCC2)OC(C)=O)n1 result_value="> 25 µM"
molecule=NCCCNc1nc2ccc(Cl)cc2c2c(=O)c3cc(F)ccc3sc12 result_value="19.1 µM"
molecule=CN1CC=C(c2cccn2C)CC1 result_value="> 100 µM"
molecule="COc1ccccc1N1C(=O)CSC1c1cc(OC)c(OC)c(OC)c1 (stereo not given)" result_value="> 100 µM"

Moving on to another molecule below.
Task: May I ask what TGI has been recorded for `O=C1c2cccnc2C(=O)c2c1c(C(=O)OCCc1ccccn1)c1ccccn21` ?
Output: 1.71 µM
